species: Cavia porcellus; experiment: Potency expressed as EC50 for the negative inotropic activity.; assay type: functional
Let's look at some molecules and their measured EC50.
Only the number, expressed in µM, is required.

Example cases with answers are listed next.
Query :: Find the measured EC50 of COc1ccc(C(C#N)(CC#CCN(C)C2c3ccccc3-c3ccccc32)C(C)C)cc1OC.Cl (stereo unspecified) and report it.
Result :: 0.35

Query :: For the molecule COc1ccc(C(C#N)(CC#CCNC2c3ccccc3-c3ccccc32)C(C)C)cc1OC.Cl (stereo unspecified) , report EC50.
Result :: 1.1

Query :: Identify measured EC50 associated with COc1ccc(C(C#N)(CCCNCc2cc3ccccc3c3ccccc23)C(C)C)cc1OC.Cl (stereo unspecified)
Result :: 1.13

Query :: Give the value of EC50 reported for the following: COc1ccc(C(C#N)(CCCNCC2c3ccccc3-c3ccccc32)C(C)C)cc1OC.Cl (stereo unspecified)
Result :: 0.47

Query :: Hello, please tell me recorded EC50 for this one: COc1ccc(C(C#N)(CC#CCN(C)CC23CC4CC(CC(C4)C2)C3)C(C)C)cc1OC.Cl (stereo unspecified)
Result :: 1.16

***
Query :: Report EC50, nothing else, for this molecule: COc1ccc(C(C#N)(CCCNC2c3ccccc3CCc3ccccc32)C(C)C)cc1OC.Cl (stereo unspecified)
Result :: 0.68

Query :: Answer with the recorded EC50 for the molecule listed here: COc1ccc(CCN(C)CCCC(C#N)(c2ccc(OC)c(OC)c2)C(C)C)cc1OC (stereo unspecified) [VERAPAMIL]
Result :: 0.61

Query :: Entry COc1ccc(C(C#N)(CC#CCNCC(c2ccccc2)c2ccccc2)C(C)C)cc1OC.Cl (stereo unspecified) needs its EC50 filled in; supply it.
Result :: 1.06

Query :: Supply recorded EC50 for COc1ccc(C(C#N)(CCCN(C)C23CC4CC(CC(C4)C2)C3)C(C)C)cc1OC.Cl (stereo unspecified) here.
Result :: 3.99

Query :: Assign EC50 to the following record: COc1ccc(C(C#N)(CCCNCc2c3ccccc3cc3ccccc23)C(C)C)cc1OC.Cl (stereo unspecified)
Result :: 1.11

Query :: Name the recorded EC50 of the molecule listed here: COc1ccc(C(C#N)(CC#CCNC(c2ccccc2)c2ccccc2)C(C)C)cc1OC.Cl (stereo unspecified)
Result :: 1.54

* * *

species on record: Cavia porcellus; experiment: Percent inhibition of calcium-induced contraction on K+ depolarized guinea pig aortic strip.; format: functional, Aorta; parameters: concentration or dose not given beside the values
Quick rule: Activity of at least 20% means yes, below that means no.

# example entries with known answers
Query :: Does COc1ccc(CCN(C)CCCC(C#N)(c2ccc(OC)c(OC)c2)C(C)C)cc1OC (stereo not given) have a reported Activity of at least 20%?
Result :: yes

Query :: Could you tell me if the measured Activity of `Cl.N#CC(CCCNCC(c1ccccc1)c1ccccc1)(c1ccccc1)c1ccccc1` reaches 20% or more?
Result :: no

Query :: In plain terms: is recorded Activity at least 20% for COc1ccc(C(C#N)(CC#CCNCc2cc3ccccc3c3ccccc23)C(C)C)cc1OC.Cl (stereo not given) ?
Result :: no

Query :: Threshold query (Activity >= 20%) on COc1ccc(C(C#N)(CCCNC23CC4CC(CC(C4)C2)C3)C(C)C)cc1OC.Cl (stereo not given)
Result :: yes

Query :: Exam item: decide whether the reported Activity for COc1ccc(C(C#N)(CCCN(C)C23CC4CC(CC(C4)C2)C3)C(C)C)cc1OC.Cl (stereo not given) is at least 20%.
Result :: yes

New cases:
Query :: State whether the measured Activity reaches 20%, counting equality as reaching it, for COc1ccc(C(C#N)(CCCNC2c3ccccc3-c3ccccc32)C(C)C)cc1OC.Cl (stereo not given)
Result :: yes

Query :: Is Activity at least 20%? Consider COc1ccc(C(C#N)(CCCNCc2c3ccccc3cc3ccccc23)C(C)C)cc1OC.Cl (stereo not given)
Result :: yes

Query :: Does the reported Activity for COc1ccc(C(C#N)(CC#CCN(C)C2c3ccccc3-c3ccccc32)C(C)C)cc1OC.Cl (stereo not given) fall at or above the 20% mark?
Result :: no

* * *

organism: Cavia porcellus; experiment: Decrease in developed tension of the left atrium of guinea pig expressed as the negative inotropy.; format: functional, Cardiac atrium; parameters: concentration or dose not given beside the values
result_type: Activity (%)
Field: numeric (%). Do not append units.

Query :: Give Activity for COc1ccc(C(C#N)(CCCNCC2c3ccccc3-c3ccccc32)C(C)C)cc1OC.Cl (stereo not given)
Result :: 71

Query :: Annotate the compound COc1ccc(C(C#N)(CC#CCN(C)C2c3ccccc3-c3ccccc32)C(C)C)cc1OC.Cl (stereo not given) with its measured Activity.
Result :: 71

Query :: Quote Activity reported for COc1ccc(C(C#N)(CC#CCNCc2cc3ccccc3c3ccccc23)C(C)C)cc1OC.Cl (stereo not given) please.
Result :: 88

Query :: Return value of Activity for input C=CCNc1nc(NCC=C)nc(N2CCC(NCCCC(C#N)(c3ccc(OC)c(OC)c3)C(C)C)CC2)n1.Cl (stereo not given) , no commentary.
Result :: 39

Query :: Given `CN(CCCC(C#N)(c1ccccc1)c1ccccc1)C1c2ccccc2-c2ccccc21.Cl` , respond with its Activity.
Result :: 55

* * *

Recorded Dead cells values for a group of compounds are listed next.
tested on: K562; test: percentage of the dead cells of K-562 cells was determined for the concentration of 1 uM of the compound.; type: ADME, cell-based; settings: human, k562, 1 µM

Here's what some known entries look like.
Query :: Output measured Dead cells for this item: COc1ccc(C(C#N)(CC#CCN(C)Cc2c3ccccc3cc3ccccc23)C(C)C)cc1OC.Cl (stereo not drawn)
Result :: 30%

Query :: Determine its reported Dead cells: `Cl.N#CC(CCCNCc1cc2ccccc2c2ccccc12)(c1ccccc1)c1ccccc1`
Result :: 100%

Alright, here's another compound for you.
Query :: Return Dead cells for the following compound: COc1ccc(CCN(C)CCCC(C#N)(c2ccc(OC)c(OC)c2)C(C)C)cc1OC (stereo not drawn)
Result :: 0%

* * *

Catalogue of compounds with associated Alpha max
tested on: K562; assay: The efficacy in reverting MDR was evaluated on human erythroleukemia K-562 cell line; format: functional
// keep it numeric: no unit symbol after the value

Worked examples, 4 compounds total:
Query :: State, in one line, measured Alpha max of COc1ccc(C(C#N)(CCCNCC(c2ccccc2)c2ccccc2)C(C)C)cc1OC.Cl (stereo not given)
Result :: 0.7

Query :: Provide one value: measured Alpha max of `Cl.N#CC(CCCNC12CC3CC(CC(C3)C1)C2)(c1ccccc1)c1ccccc1`
Result :: 0.8

Query :: Identify Alpha max associated with the compound COc1ccc(C(C#N)(CC#CCN(C)C23CC4CC(CC(C4)C2)C3)C(C)C)cc1OC.Cl (stereo not given)
Result :: 0.8

Query :: Identify measured Alpha max associated with COc1ccc(C(C#N)(CCCNC23CC4CC(CC(C4)C2)C3)C(C)C)cc1OC.Cl (stereo not given)
Result :: 0.7

Field: next compound
Query :: Please supply the value of reported Alpha max for the item COc1ccc(C(C#N)(CCCN(C)CC23CC4CC(CC(C4)C2)C3)C(C)C)cc1OC.Cl (stereo not given)
Result :: 0.65

* * *

organism: Cavia porcellus; assay: Potency expressed as IC50 for the vasorelaxant activity.; type: functional
# strict inequality: IC50 < 4 µM yields T, everything else yields F

Query :: IC50 under 4 µM? Item: C=CCNc1nc(NCC=C)nc(N2CCC(NCCCC(C#N)(c3ccc(OC)c(OC)c3)C(C)C)CC2)n1.Cl (stereo not given)
Result :: T

Query :: Problem: For the compound COc1ccc(C(C#N)(CCCN(C)C23CC4CC(CC(C4)C2)C3)C(C)C)cc1OC.Cl (stereo not given) , is IC50 under 4 µM?
Result :: T

Query :: IC50 strictly < 4 µM for this compound? `Cl.N#CC(CCCNC12CC3CC(CC(C3)C1)C2)(c1ccccc1)c1ccccc1`
Result :: T

Query :: Does the reported IC50 of COc1ccc(C(C#N)(CC#CCN(C)CC23CC4CC(CC(C4)C2)C3)C(C)C)cc1OC.Cl (stereo not given) stay below 4 µM?
Result :: T

Now for another entry.
Query :: Regarding COc1ccc(C(C#N)(CC#CCNCC(c2ccccc2)c2ccccc2)C(C)C)cc1OC.Cl (stereo not given) , kindly confirm whether its IC50 is beneath 4 µM.
Result :: F

* * *

species: Cavia porcellus; assay: Decrease in developed tension of the left atrium of guinea pig expressed as the negative inotropy.; assay type: functional, Cardiac atrium; design: concentration or dose not given beside the values
Entries and their Activity values follow.
Output spec: scalar in %, unitless text.

These solved cases illustrate the format of a correct answer.
Query :: Give the value of Activity reported for the following: COc1ccc(C(C#N)(CCCNC2c3ccccc3-c3ccccc32)C(C)C)cc1OC.Cl (centres undefined)
Result :: 33

Query :: Write down Activity measured for item COc1ccc(C(C#N)(CCCN(C)CC2c3ccccc3-c3ccccc32)C(C)C)cc1OC.Cl (centres undefined)
Result :: 75

Query :: Give recorded Activity. COc1ccc(C(C#N)(CCCNC23CC4CC(CC(C4)C2)C3)C(C)C)cc1OC.Cl (centres undefined)
Result :: 45

Query :: Read off the recorded Activity for COc1ccc(CCN(C)CCCC(C#N)(c2ccc(OC)c(OC)c2)C(C)C)cc1OC (centres undefined) [VERAPAMIL]
Result :: 84

Further cases:
Query :: Supply measured Activity of COc1ccc(C(C#N)(CCCNC2c3ccccc3CCc3ccccc32)C(C)C)cc1OC.Cl (centres undefined) in your reply.
Result :: 70

Query :: Using known records, supply Activity for `Cl.N#CC(CCCNCC(c1ccccc1)c1ccccc1)(c1ccccc1)c1ccccc1`
Result :: 75

Query :: Output measured Activity for this item: COc1ccc(C(C#N)(CC#CCN(C)CC2c3ccccc3-c3ccccc32)C(C)C)cc1OC.Cl (centres undefined)
Result :: 78

Query :: Annotate the compound `Cl.N#CC(CCCNC12CC3CC(CC(C3)C1)C2)(c1ccccc1)c1ccccc1` with its measured Activity.
Result :: 80

Query :: Query Activity for COc1ccc(C(C#N)(CCCNCc2cc3ccccc3c3ccccc23)C(C)C)cc1OC.Cl (centres undefined)
Result :: 65

Sourced from ChEMBL document CHEMBL1132206
